Value source: the supplement of paper PMC6555819

System: RARb homodimer (NR concentration 270 nM)
Experiment: PBM binding z-score (relative to random genomic background probes); higher = stronger binding; sequences stand for … in GC…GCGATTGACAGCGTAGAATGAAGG

{"columns": ["Biopolymer sequence", "PBM binding z-score"],
 "data": [
  ["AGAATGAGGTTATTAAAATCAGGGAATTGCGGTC", 0.836],
  ["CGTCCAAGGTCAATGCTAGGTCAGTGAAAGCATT", 4.88],
  ["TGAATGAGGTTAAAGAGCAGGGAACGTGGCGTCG", 0.754],
  ["TCTGCTAGGTCAGCGATGGTCAGCTAATCTGCTA", 2.71],
  ["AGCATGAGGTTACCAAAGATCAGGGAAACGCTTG", 1.04],
  ["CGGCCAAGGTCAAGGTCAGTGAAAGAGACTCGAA", 5.16],
  ["CTTGAAAGGTCGTGCTCAGGTGAGTATACCAAAC", 2.75],
  ["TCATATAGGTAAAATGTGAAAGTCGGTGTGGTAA", -0.199],
  ["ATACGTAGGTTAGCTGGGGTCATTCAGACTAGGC", 3.71],
  ["TCTTGTAGATCAACAGAGGTTAAGAAAGTGCGCT", 1.45],
  ["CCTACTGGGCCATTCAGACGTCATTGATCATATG", -0.514],
  ["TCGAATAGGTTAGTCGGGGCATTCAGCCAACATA", 0.708],
  ["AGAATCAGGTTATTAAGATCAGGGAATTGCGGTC", 0.785]
]}

---

System: VDR homodimer (NR concentration 270 nM)
Test: PBM binding z-score (relative to random genomic background probes); higher = stronger binding; sequences stand for … in GC…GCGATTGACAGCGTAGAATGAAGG
# label = Criterion met if PBM binding z-score >= 0.1 else Criterion not met

{"columns": ["Biopolymer sequence", "System name", "Assigned class"],
 "data": [
  ["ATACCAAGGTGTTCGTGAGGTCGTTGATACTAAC", "VDR homodimer (NR concentration 270 nM)", "Criterion met"],
  ["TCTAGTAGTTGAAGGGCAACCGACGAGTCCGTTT", "VDR homodimer (NR concentration 270 nM)", "Criterion met"],
  ["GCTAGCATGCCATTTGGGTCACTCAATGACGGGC", "VDR homodimer (NR concentration 270 nM)", "Criterion not met"],
  ["ATCGAAAGATCGTGAGGTGAGTATACAGAAAGGC", "VDR homodimer (NR concentration 270 nM)", "Criterion not met"],
  ["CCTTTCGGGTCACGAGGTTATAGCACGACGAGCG", "VDR homodimer (NR concentration 270 nM)", "Criterion met"],
  ["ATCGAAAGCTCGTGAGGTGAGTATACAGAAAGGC", "VDR homodimer (NR concentration 270 nM)", "Criterion not met"],
  ["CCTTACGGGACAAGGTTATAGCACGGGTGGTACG", "VDR homodimer (NR concentration 270 nM)", "Criterion met"],
  ["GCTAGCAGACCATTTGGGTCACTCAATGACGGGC", "VDR homodimer (NR concentration 270 nM)", "Criterion not met"],
  ["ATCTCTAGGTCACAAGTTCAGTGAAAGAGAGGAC", "VDR homodimer (NR concentration 270 nM)", "Criterion met"],
  ["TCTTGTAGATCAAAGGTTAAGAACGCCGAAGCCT", "VDR homodimer (NR concentration 270 nM)", "Criterion met"],
  ["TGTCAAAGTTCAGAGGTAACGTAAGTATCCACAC", "VDR homodimer (NR concentration 270 nM)", "Criterion met"],
  ["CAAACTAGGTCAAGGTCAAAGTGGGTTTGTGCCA", "VDR homodimer (NR concentration 270 nM)", "Criterion met"],
  ["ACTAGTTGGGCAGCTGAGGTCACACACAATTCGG", "VDR homodimer (NR concentration 270 nM)", "Criterion met"],
  ["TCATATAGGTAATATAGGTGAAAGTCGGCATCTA", "VDR homodimer (NR concentration 270 nM)", "Criterion not met"],
  ["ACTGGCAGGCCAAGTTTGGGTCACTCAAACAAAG", "VDR homodimer (NR concentration 270 nM)", "Criterion not met"],
  ["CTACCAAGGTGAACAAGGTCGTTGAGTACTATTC", "VDR homodimer (NR concentration 270 nM)", "Criterion met"],
  ["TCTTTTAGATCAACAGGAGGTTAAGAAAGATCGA", "VDR homodimer (NR concentration 270 nM)", "Criterion not met"],
  ["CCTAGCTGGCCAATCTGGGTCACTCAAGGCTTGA", "VDR homodimer (NR concentration 270 nM)", "Criterion not met"],
  ["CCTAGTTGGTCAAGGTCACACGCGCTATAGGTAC", "VDR homodimer (NR concentration 270 nM)", "Criterion met"],
  ["AGAACGAGGGCAATGAGTTGAGAGCACGGGTGGC", "VDR homodimer (NR concentration 270 nM)", "Criterion met"],
  ["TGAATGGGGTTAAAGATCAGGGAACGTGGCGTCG", "VDR homodimer (NR concentration 270 nM)", "Criterion met"],
  ["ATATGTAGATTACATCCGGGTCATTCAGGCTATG", "VDR homodimer (NR concentration 270 nM)", "Criterion met"],
  ["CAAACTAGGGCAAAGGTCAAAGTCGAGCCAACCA", "VDR homodimer (NR concentration 270 nM)", "Criterion met"],
  ["GCATATAGGTAATACAAGGTGAAAATCCGATTGT", "VDR homodimer (NR concentration 270 nM)", "Criterion not met"],
  ["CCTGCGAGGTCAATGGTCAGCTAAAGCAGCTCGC", "VDR homodimer (NR concentration 270 nM)", "Criterion met"],
  ["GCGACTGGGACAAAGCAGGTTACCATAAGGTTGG", "VDR homodimer (NR concentration 270 nM)", "Criterion not met"]
]}

---

Test system: PXR:RXRa (NR concentration 270 nM, RXRa partner concentration 90 nM)
Test: PBM binding z-score (relative to random genomic background probes); higher = stronger binding; sequences stand for … in GC…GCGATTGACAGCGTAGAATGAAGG
Property: PBM binding z-score; scope: individual sequences

{"columns": ["Biopolymer sequence", "PBM binding z-score"],
 "data": [
  ["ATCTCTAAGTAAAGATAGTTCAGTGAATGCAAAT", 0.808],
  ["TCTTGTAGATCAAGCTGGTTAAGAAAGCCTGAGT", 0.0638],
  ["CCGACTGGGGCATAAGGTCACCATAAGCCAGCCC", 3.81],
  ["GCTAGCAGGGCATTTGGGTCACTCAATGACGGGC", 1.06],
  ["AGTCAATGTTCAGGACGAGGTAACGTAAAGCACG", -0.119],
  ["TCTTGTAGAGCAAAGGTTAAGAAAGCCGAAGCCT", 1.49],
  ["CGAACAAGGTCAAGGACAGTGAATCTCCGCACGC", 3.97],
  ["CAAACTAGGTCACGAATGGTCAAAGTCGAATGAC", 2.47],
  ["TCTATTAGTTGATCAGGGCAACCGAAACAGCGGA", 0.5],
  ["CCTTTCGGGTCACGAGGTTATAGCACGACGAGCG", 4.93],
  ["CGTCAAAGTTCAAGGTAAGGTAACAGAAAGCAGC", 4.03],
  ["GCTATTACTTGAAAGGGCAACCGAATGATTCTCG", 0.499]
]}

---

Property: PBM binding z-score; scope: individual sequences
System: PPARg DBDmut:RXRa IVT, anti-PPARg (DBD mutation: PPARg1 K132A/R137A, NR concentration 270 nM, RXRa partner concentration 90 nM)
Assay: PBM binding z-score (relative to random genomic background probes); higher = stronger binding; sequences stand for … in GC…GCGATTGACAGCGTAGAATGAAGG

{"columns": ["Biopolymer sequence", "PBM binding z-score"],
 "data": [
  ["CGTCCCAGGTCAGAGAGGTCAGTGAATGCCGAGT", -0.171],
  ["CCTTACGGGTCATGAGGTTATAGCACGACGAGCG", 1.38],
  ["TCTTGTAGATCAAGCAGGTTATGAAAGCCTGAGT", 0.244],
  ["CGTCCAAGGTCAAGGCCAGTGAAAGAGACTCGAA", 0.269],
  ["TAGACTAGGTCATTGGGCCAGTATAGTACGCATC", 1.28],
  ["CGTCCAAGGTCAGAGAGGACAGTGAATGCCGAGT", -0.223],
  ["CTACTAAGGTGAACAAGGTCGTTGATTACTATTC", 0.656],
  ["CCTACTGGGCCATCAGGCCATTGATATCAACGTT", -0.657],
  ["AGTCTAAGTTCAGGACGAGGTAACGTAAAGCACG", 0.154],
  ["TCTCGGCGGACACGAAAGGTCAGAGCTCGACATC", -0.347],
  ["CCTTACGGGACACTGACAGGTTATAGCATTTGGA", 0.162],
  ["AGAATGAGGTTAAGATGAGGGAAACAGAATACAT", 1.61],
  ["TCTTGTAGATCAAAAGAGGTTAAGAAAGTGCGCT", 0.0222],
  ["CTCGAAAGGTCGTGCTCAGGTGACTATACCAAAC", -0.324],
  ["CAAACTAGGTCATAGAGGTCAAAGTCCGTGCGTA", 1.02],
  ["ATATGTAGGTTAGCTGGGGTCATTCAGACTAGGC", 2.15],
  ["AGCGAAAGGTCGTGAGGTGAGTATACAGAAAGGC", 0.478],
  ["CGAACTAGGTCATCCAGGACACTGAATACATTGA", 3.17],
  ["ACCTCTAGGTAAGACTCAGTTCAGTGAAGAACGC", -0.124],
  ["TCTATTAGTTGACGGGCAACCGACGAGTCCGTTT", 0.163],
  ["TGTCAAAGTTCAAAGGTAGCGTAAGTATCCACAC", 0.876],
  ["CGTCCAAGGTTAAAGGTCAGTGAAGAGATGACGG", 0.18],
  ["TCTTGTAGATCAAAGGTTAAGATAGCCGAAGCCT", 0.743],
  ["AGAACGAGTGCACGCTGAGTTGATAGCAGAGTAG", 0.194],
  ["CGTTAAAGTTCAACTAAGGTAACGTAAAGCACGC", 1.25],
  ["CAAACTAGGTAAAAGGTCAAAGTCGAGCCAACCA", 2.77]
]}
